Biological target: UniProtKB P13569
Assay: Short-circuit current analysis of CFTR inhibition in CFTR-expressing FRT cells
Assay type: cell-based
Parameters: expressed in transfected cells; host or cells: Fischer rat thyroid (FRT) epithelial cells on Snapwell inserts
Conditions: Determined by short-circuit current assay; read-out: IC50 (μM)^B
Measure: log10 IC50 (log10 of the value in µM)
Friendly reminder: values = log10 of IC50, unit µM.

Past entries and their recorded results:
For reference, reported log10 IC50 for Cc1ccc(C2Oc3ccc([N+](=O)[O-])cc3-n3c(-c4ccccc4)c4c(=O)n(C)c(=O)n(C)c4c32)o1 (stereo not shown) [BPO-22] stands at -1.60

Please fill in: log10 IC50 reported for Cn1c(=O)c2c(-c3ccccc3)n3c(c2n(C)c1=O)C(c1ccc(I)o1)Nc1ccccc1-3 (stereo not shown) [PPQ-11] = -1.00

Given item Cn1c(=O)c2c(-c3ccccc3)n3c(c2n(C)c1=O)C(c1ccc(Br)o1)Nc1ccccc1-3 (stereo not shown) [PPQ-10] , the value recorded as its log10 IC50 is -1.30

In plain terms, Cn1c(=O)c2c(-c3ccccc3)n3c(c2n(C)c1=O)C(c1ccc(Br)o1)Oc1ccccc1-3 (stereo not shown) [BPO-16] has a documented log10 IC50 of -1.05

The recorded log10 IC50 for entry Cn1c(=O)c2c(-c3ccccc3)n3c(c2n(C)c1=O)C(c1ccc(Br)o1)Oc1ccc(C(=O)O)cc1-3 (racemic) [BPO-27] equals -2.10

Further cases:
Given item Cn1c(=O)c2c(-c3ccccc3)n3c(c2n(C)c1=O)C(c1ccc(Br)o1)Oc1ccc([N+](=O)[O-])cc1-3 (stereo not shown) [BPO-21] , the value recorded as its log10 IC50 is -1.60

The value of log10 IC50 measured for the compound CCOC(=O)c1ccc2c(c1)-n1c(-c3ccccc3)c3c(=O)n(C)c(=O)n(C)c3c1C(c1ccc(Br)o1)O2 (racemic) [BPO-25] turned out to be -1.60

---

Tested on: E13.5 embryonic kidneys
Experiment: Embryonic kidney organ culture model of PKD (8-Br-cAMP-induced cyst growth)
Assay type: cell-based, mouse
Conditions: Mus musculus; 100 μM 8-Br-cAMP, racemic mixture; read-out: IC50 for inhibition of cyst growth (percentage area occupied by cysts)
pIC50: −log10 of the molar value.
Measure: pIC50

Looking up Cn1c(=O)c2c(-c3ccccc3)n3c(c2n(C)c1=O)C(c1ccc(Br)o1)Oc1ccc(C(=O)O)cc1-3 (racemic) , I found its pIC50 recorded as ~7.00

---

Assay: Aqueous solubility
Assay type: physicochemical
Conditions: albumin-free saline, saline or isotonic; read-out: water solubility
Measure: solubility

Lab note: Cc1ccc(C2Nc3ccccc3-n3c(-c4ccccc4)c4c(=O)n(C)c(=O)n(C)c4c32)o1 (stereo not shown) [PPQ-102, reference compound] gave solubility of ~2 µM

---

Target: human wildtype CFTR (Homo sapiens)
Sequence (P13569 whole entry): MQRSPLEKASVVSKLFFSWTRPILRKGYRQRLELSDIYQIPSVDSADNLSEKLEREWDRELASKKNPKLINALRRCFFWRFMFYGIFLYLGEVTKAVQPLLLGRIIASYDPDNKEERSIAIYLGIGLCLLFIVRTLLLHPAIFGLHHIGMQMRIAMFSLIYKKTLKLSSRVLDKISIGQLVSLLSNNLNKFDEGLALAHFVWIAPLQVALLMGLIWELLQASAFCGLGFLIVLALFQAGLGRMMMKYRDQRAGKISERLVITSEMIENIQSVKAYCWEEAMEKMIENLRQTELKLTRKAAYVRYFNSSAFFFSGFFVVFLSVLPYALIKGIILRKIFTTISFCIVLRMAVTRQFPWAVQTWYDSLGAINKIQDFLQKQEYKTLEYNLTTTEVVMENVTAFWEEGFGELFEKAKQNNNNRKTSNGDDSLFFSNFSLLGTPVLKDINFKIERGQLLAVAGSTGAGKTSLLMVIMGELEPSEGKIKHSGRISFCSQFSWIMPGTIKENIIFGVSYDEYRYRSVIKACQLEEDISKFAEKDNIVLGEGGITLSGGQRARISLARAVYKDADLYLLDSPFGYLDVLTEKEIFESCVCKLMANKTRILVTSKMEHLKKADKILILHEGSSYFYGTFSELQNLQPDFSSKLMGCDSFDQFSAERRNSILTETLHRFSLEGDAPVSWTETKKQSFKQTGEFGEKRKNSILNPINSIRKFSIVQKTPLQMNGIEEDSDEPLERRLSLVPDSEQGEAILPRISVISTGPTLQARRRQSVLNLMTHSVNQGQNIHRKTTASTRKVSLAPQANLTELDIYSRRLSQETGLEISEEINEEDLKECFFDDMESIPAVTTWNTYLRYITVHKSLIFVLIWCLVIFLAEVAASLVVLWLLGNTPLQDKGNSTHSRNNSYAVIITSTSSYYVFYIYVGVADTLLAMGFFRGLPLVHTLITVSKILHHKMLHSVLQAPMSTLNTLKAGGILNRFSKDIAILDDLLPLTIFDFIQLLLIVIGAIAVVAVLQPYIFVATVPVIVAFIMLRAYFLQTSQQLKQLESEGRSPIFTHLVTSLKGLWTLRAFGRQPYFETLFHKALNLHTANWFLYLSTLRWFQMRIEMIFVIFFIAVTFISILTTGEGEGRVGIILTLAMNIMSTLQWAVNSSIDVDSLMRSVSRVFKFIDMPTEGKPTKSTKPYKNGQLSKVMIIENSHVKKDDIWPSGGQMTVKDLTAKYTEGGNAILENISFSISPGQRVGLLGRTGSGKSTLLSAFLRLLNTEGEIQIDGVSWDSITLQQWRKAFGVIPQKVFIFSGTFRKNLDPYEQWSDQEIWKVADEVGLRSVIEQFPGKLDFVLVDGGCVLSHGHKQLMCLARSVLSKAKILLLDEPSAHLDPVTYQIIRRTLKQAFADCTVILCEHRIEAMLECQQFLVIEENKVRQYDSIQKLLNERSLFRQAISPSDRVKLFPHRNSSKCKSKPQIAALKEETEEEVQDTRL
Assay: Fluorescence plate reader assay of CFTR inhibition (iodide influx)
Format: cell-based
Set-up: expressed in transfected cells; host or cells: Fischer rat thyroid (FRT) cells
Settings: Determined by micro-plate reader assay; FRT cells co-expressing human wild type CFTR and YFP-H148Q
Measure: IC50

// recorded IC50 for Cn1c(=O)c2c(-c3ccccc3)n3c(c2n(C)c1=O)C(c1ccc(Cl)o1)Nc1ccccc1-3 (stereo not shown) [PPQ-9] : 150 nM

Entry Cc1cc(C2Nc3ccccc3-n3c(-c4ccccc4)c4c(=O)n(C)c(=O)n(C)c4c32)oc1C (stereo not shown) [PPQ-8] , IC50 reported as 1700 nM

Lab book: IC50 of Cn1c(=O)c2c(-c3ccccc3)n3c(c2n(C)c1=O)C(c1ccc(Br)o1)Nc1ccc([N+](=O)[O-])cc1-3 (stereo not shown) [PPQ-23] noted as 170 nM

Record Cn1c(=O)c2c(-c3ccccc3)n3c(c2n(C)c1=O)C(c1ccc(Br)o1)Oc1ccc(C(=O)O)cc1-3 (racemic) [BPO-27] , field IC50: 40 nM

The reported value for CCOC(=O)c1ccc2c(c1)-n1c(-c3ccccc3)c3c(=O)n(C)c(=O)n(C)c3c1C(c1ccc(C)o1)O2 (stereo not shown) [BPO-26] in terms of IC50 is 80 nM

Lab book: IC50 of Cc1ccc(C2c3c4c(c(-c5ccccc5)n3-c3ccccc3N2N=O)c(=O)n(C)c(=O)n4C)o1 (stereo not shown) [PPQ-4] noted as 2000 nM

Form field IC50, entry Cc1ccc(C2Nc3ccccc3-n3c(-c4ccccc4)c4c(=O)n(C)c(=O)n(C)c4c32)o1 (stereo not shown) [PPQ-102, reference compound] : 250 nM
